Target: cAMP and cAMP-inhibited cGMP 3',5'-cyclic phosphodiesterase 10A (Rattus norvegicus, UniProt Q9QYJ6)
Sequence (Q9QYJ6 whole entry): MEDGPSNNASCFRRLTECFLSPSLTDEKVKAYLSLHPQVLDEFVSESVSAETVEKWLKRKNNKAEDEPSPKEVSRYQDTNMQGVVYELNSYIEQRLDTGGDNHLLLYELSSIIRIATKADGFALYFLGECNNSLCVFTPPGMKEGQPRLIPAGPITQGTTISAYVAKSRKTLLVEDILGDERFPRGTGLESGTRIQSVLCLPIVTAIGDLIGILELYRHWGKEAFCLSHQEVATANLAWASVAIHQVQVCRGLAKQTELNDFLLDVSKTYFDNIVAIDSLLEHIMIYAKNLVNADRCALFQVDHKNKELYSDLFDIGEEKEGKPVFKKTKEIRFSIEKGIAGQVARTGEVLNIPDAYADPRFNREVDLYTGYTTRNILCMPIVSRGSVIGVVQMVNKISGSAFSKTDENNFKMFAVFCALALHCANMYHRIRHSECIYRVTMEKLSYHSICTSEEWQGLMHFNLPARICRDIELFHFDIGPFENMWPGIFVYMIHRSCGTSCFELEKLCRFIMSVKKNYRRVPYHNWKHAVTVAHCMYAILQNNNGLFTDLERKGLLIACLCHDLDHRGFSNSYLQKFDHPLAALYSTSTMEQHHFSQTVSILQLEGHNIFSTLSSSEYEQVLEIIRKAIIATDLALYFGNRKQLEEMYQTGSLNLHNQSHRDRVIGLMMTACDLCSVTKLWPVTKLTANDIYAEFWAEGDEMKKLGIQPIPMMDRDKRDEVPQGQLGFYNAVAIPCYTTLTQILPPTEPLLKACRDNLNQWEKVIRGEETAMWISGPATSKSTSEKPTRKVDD
Assay: In Vitro Assay: Rat recombinant PDE10a (rPDE10a) was expressed in Sf9 cells using a recombinant rPDE10a baculovirus construct. Cells were harvested after 48 h of infection and the rPDE10a protein was purified by metal chelate chromatography on Ni-sepharose 6FF. Tested compounds were dissolved and diluted in 100% DMSO to a concentration 100 fold of the final concentration in the assay. Compound dilutions (0.4 uL) were added in 384 well plates to 20 uL of incubation buffer (50 mM Tris pH 7.8, 8.3 mM MgCl2, 1.7 mM EGTA). 10 uL of rPDE10a enzyme in incubation buffer was added and the reaction was started by addition of 10 uL substrate to a final concentration of 60 nM cAMP and 0.008 uCi3H-cAMP. The reaction was incubated for 60 min at rt. After incubation, the reaction was stopped with 20 uL of 17.8 mg/mL PDE SPA beads. After sedimentation of the beads during 30 min the radioactivity was measured in a Perkin Elmer Topcount scintillation counter.
Endpoint name: IC50

Below are some compounds; for each one, tell me its IC50.
1. C(#Cc1nc2c(N3CCOCC3)ccnn2c1-c1ccc(N2CCNCC2)nc1)c1ccc2ccccc2n1
2. N#Cc1ccc(-c2c(/C=C/c3ccc4c(C(=O)O)cccc4n3)nc3c(N4CCOCC4)ccnn23)cc1
3. O=C(O)c1ccc(-c2c(CSc3ccc4ccccc4n3)nc3c(N4CCOCC4)ccnn23)cc1
4. C(=C\c1nc2c(N3CCOCC3)ccnn2c1-c1ccc(Sc2nnc[nH]2)nc1)/c1ccc2ccccc2n1

1: 1 nM; 2: 1 nM; 3: 1 nM; 4: 4 nM
